target: GST-TIE2 (intracellular domains of human TIE2) (Homo sapiens); experiment: TIE-2 Enzyme Assay (TIE2-E2), LANCE method; conditions: read-out: TIE2 PIC50 TIE2-E2 assay
Sequence (Q02763 762-1104): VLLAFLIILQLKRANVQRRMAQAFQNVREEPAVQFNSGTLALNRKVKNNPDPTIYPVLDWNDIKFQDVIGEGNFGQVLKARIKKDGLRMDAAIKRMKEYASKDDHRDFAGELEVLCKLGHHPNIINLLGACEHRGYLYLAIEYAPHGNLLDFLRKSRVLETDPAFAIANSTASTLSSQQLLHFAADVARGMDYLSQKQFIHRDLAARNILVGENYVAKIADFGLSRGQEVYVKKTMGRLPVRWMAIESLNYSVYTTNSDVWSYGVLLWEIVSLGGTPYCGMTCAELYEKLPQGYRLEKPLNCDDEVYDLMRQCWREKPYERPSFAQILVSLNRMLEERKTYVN
pIC50: −log10 of the molar value.
For each entry below, report its pIC50 value.

Answered cases to consult:
1) Cn1nc(-c2ccc(NC(=O)Nc3cc(C(F)(F)F)ccc3F)cc2)c2cnc(NCCc3ccncc3)nc21; 7.00 to 7.40
2) CN1CCCC1CCNc1ncc2c(-c3ccc(NC(=O)Nc4cc(C(F)(F)F)ccc4F)cc3)nn(C)c2n1 (centres unmarked); ≥ 7.40
3) CC(=O)Nc1ncc2c(-c3ccc(NS(=O)(=O)c4cccc(Cl)c4Cl)cc3)nn(C)c2n1; 5.00 to 6.00
4) CN1CCN(CCCNc2ncc3c(-c4ccc(NC(=O)Nc5cc(C(F)(F)F)ccc5F)cc4)nn(C)c3n2)CC1; ≥ 7.40
5) CCc1cccc(NC(=O)Nc2ccc(-c3nn(C)c4nc(NCCN5CCOCC5)ncc34)cc2)c1; 7.00 to 7.40
6) Cn1nc(-c2ccc(NS(=O)(=O)c3cccc(Cl)c3Cl)cc2)c2cnc(NCCCO)nc21; < 5.00
7) Cn1nc(-c2ccc(NS(=O)(=O)c3cccc(Cl)c3Cl)cc2)c2cnc(NCCCCO)nc21; 5.00 to 6.00
8) Cn1nc(-c2ccc(NS(=O)(=O)c3cccc(Cl)c3Cl)cc2)c2cnc(NCCCn3ccnc3)nc21; < 5.00
9) Cc1cc(-c2nn(C)c3nc(NCCN4CCOCC4)ncc23)ccc1NC(=O)Nc1ccc2ccccc2c1; 6.00 to 7.00
10) Cn1nc(-c2ccc(NC(=O)Nc3cc(C(F)(F)F)ccc3F)cc2)c2cnc(NCCc3cccnc3)nc21; 6.00 to 7.00

For each entry beneath this line, provide reported pIC50.
1. Cn1nc(-c2ccc(NC(=O)Nc3cc(C(F)(F)F)ccc3F)cc2)c2cnc(NC(CO)CO)nc21
2. Cn1cncc1CCNc1ncc2c(-c3ccc(NC(=O)Nc4cc(C(F)(F)F)ccc4F)cc3)nn(C)c2n1
3. CN1CCN(CCCNc2ncc3c(-c4ccc(NS(=O)(=O)c5cccc(Cl)c5Cl)cc4)nn(C)c3n2)CC1
4. CC1CCCCN1CCCNc1ncc2c(-c3ccc(NS(=O)(=O)c4cccc(Cl)c4Cl)cc3)nn(C)c2n1 (centres unmarked)

**A:**
1: 6.00 to 7.00; 2: 7.00 to 7.40; 3: 5.00 to 6.00; 4: < 5.00

For each entry beneath this line, provide reported pIC50.
1. Cn1nc(-c2ccc(NC(=O)Nc3cc(C(F)(F)F)ccc3F)cc2)c2cnc(NCCN3CCOCC3)nc21
2. Cn1nc(-c2ccc(NS(=O)(=O)c3cccc(Cl)c3Cl)cc2)c2cnc(NCCCCN3CCCC3)nc21
3. Cn1nc(-c2ccc(NC(=O)Nc3cc(C(F)(F)F)ccc3F)cc2)c2cnc(NCCOC(=O)Nc3cc(C(F)(F)F)ccc3F)nc21
4. CN1CCCC1CCNc1ncc2c(-c3ccc(NS(=O)(=O)c4cccc(Cl)c4Cl)cc3)nn(C)c2n1 (centres unmarked)
5. Cn1nc(-c2ccc(NS(=O)(=O)c3cccc(Cl)c3Cl)cc2)c2cnc(NC(CO)CO)nc21
6. CCN(CC)CCCNc1ncc2c(-c3ccc(NC(=O)Nc4cc(C(C)(C)C)on4)c(F)c3)nn(C)c2n1
7. Cn1nc(-c2ccc(NS(=O)(=O)c3cccc(Cl)c3Cl)cc2)c2cnc(NCCCN3CCCC3)nc21

**A:**
["7.00 to 7.40", "< 5.00", "5.00 to 6.00", "< 5.00", "< 5.00", "≥ 7.40", "< 5.00"]
